Test system: HUVEC/MSC spheroids viability
Experiment: Human HUVEC/MSC cell line growth inhibition [KRAS2];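 also: percent of DMSO vehicle control luminescence so 100% = untreated viability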
Conditions: second compound 0.949 µM; first compound 1 µM; stronger effect = lower value
Lab note - cut at 80% for viability, T/C: Y if strictly below, N if not.

[
  {
    "COMPOUND": "Cn1nccc1Nc1nccc(-c2cc3c(s2)C(C)(C)N(CCN2CCOCC2)C3=O)n1 + C=CC(=O)N1CCN(c2nc(OCC3CCCN3C)nc3c2CCN(c2cccc4cccc(C)c24)C3)CC1CC#N",
    "CLASSIFICATION": "N"
  },
  {
    "COMPOUND": "COC(=O)c1ccc2c(C(=Nc3ccc(N(C)C(=O)CN4CCN(C)CC4)cc3)c3ccccc3)c(O)[nH]c2c1 + C=CC(=O)N1CCN(c2nc(OCC3CCCN3C)nc3c2CCN(c2cccc4cccc(C)c24)C3)CC1CC#N",
    "CLASSIFICATION": "Y"
  },
  {
    "COMPOUND": "O=C(c1cc(Cc2n[nH]c(=O)c3ccccc23)ccc1F)N1CCN(C(=O)C2CC2)CC1 + C=CC(=O)N1CCN(c2nc(OCC3CCCN3C)nc3c2CCN(c2cccc4cccc(C)c24)C3)CC1CC#N",
    "CLASSIFICATION": "N"
  },
  {
    "COMPOUND": "CCN1CCN(Cc2ccc(Nc3ncc(F)c(-c4cc(F)c5nc(C)n(C(C)C)c5c4)n3)nc2)CC1 + C=CC(=O)N1CCN(c2nc(OCC3CCCN3C)nc3c2CCN(c2cccc4cccc(C)c24)C3)CC1CC#N",
    "CLASSIFICATION": "N"
  },
  {
    "COMPOUND": "COc1cc(Nc2ncc3c(n2)-c2ccc(Cl)cc2C(c2c(F)cccc2OC)=NC3)ccc1C(=O)O + C=CC(=O)N1CCN(c2nc(OCC3CCCN3C)nc3c2CCN(c2cccc4cccc(C)c24)C3)CC1CC#N",
    "CLASSIFICATION": "Y"
  },
  {
    "COMPOUND": "CCNC(=O)CC1N=C(c2ccc(Cl)cc2)c2cc(OC)ccc2-n2c(C)nnc21 (centres undefined) + C=CC(=O)N1CCN(c2nc(OCC3CCCN3C)nc3c2CCN(c2cccc4cccc(C)c24)C3)CC1CC#N",
    "CLASSIFICATION": "Y"
  },
  {
    "COMPOUND": "CC1OCC2(CCN(c3cnc(Sc4ccnc(N)c4Cl)c(N)n3)CC2)C1N (centres undefined) + C=CC(=O)N1CCN(c2nc(OCC3CCCN3C)nc3c2CCN(c2cccc4cccc(C)c24)C3)CC1CC#N",
    "CLASSIFICATION": "Y"
  },
  {
    "COMPOUND": "CC1(C)CCC(CN2CCN(c3ccc(C(=O)NS(=O)(=O)c4ccc(NCC5CCOCC5)c([N+](=O)[O-])c4)c(Oc4cnc5[nH]ccc5c4)c3)CC2)=C(c2ccc(Cl)cc2)C1 + C=CC(=O)N1CCN(c2nc(OCC3CCCN3C)nc3c2CCN(c2cccc4cccc(C)c24)C3)CC1CC#N",
    "CLASSIFICATION": "N"
  },
  {
    "COMPOUND": "COc1cc2nccc(Oc3ccc(NC(=O)C4(C(=O)Nc5ccc(F)cc5)CC4)cc3)c2cc1OC + C=CC(=O)N1CCN(c2nc(OCC3CCCN3C)nc3c2CCN(c2cccc4cccc(C)c24)C3)CC1CC#N",
    "CLASSIFICATION": "N"
  }
]

====

System: HUVEC/MSC spheroids viability
Test: Human HUVEC/MSC cell line growth inhibition [KRAS2];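 also: percent of DMSO vehicle control luminescence so 100% = untreated viability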
Settings: second compound 3.16 µM; first compound 1 µM; stronger effect = lower value
Measured viability, T/C by item

[
  {
    "COMPOUND": "CCNC(=O)CC1N=C(c2ccc(Cl)cc2)c2cc(OC)ccc2-n2c(C)nnc21 (configuration not stated) + C=CC(=O)N1CCN(c2nc(=O)n(-c3c(C)ccnc3C(C)C)c3nc(-c4c(O)cccc4F)c(F)cc23)C(C)C1",
    "TARGET_UNDER_TEST": "HUVEC/MSC spheroids viability",
    "viability, T/C": "208%"
  },
  {
    "COMPOUND": "CC(C)NCC(C(=O)N1CCN(c2ncnc3c2C(C)CC3O)CC1)c1ccc(Cl)cc1 (configuration not stated) + CNCc1ccccc1-c1csc(C(C)Nc2nc(C)nc3cc(OC)c(OC)cc23)c1",
    "TARGET_UNDER_TEST": "HUVEC/MSC spheroids viability",
    "viability, T/C": "79.5%"
  },
  {
    "COMPOUND": "CC(C)NCC(C(=O)N1CCN(c2ncnc3c2C(C)CC3O)CC1)c1ccc(Cl)cc1 (configuration not stated) + C=CC(=O)N1CCN(c2nc(=O)n(-c3c(C)ccnc3C(C)C)c3nc(-c4c(O)cccc4F)c(F)cc23)C(C)C1",
    "TARGET_UNDER_TEST": "HUVEC/MSC spheroids viability",
    "viability, T/C": "84.6%"
  },
  {
    "COMPOUND": "COC(=O)c1ccc2c(C(=Nc3ccc(N(C)C(=O)CN4CCN(C)CC4)cc3)c3ccccc3)c(O)[nH]c2c1 + C=CC(=O)N1CCN(c2nc(=O)n(-c3c(C)ccnc3C(C)C)c3nc(-c4c(O)cccc4F)c(F)cc23)C(C)C1",
    "TARGET_UNDER_TEST": "HUVEC/MSC spheroids viability",
    "viability, T/C": "80.5%"
  },
  {
    "COMPOUND": "COc1cc2nccc(Oc3ccc(NC(=O)C4(C(=O)Nc5ccc(F)cc5)CC4)cc3)c2cc1OC + C=CC(=O)N1CCN(c2nc(=O)n(-c3c(C)ccnc3C(C)C)c3nc(-c4c(O)cccc4F)c(F)cc23)C(C)C1",
    "TARGET_UNDER_TEST": "HUVEC/MSC spheroids viability",
    "viability, T/C": "88%"
  },
  {
    "COMPOUND": "CCNC(=O)CC1N=C(c2ccc(Cl)cc2)c2cc(OC)ccc2-n2c(C)nnc21 (configuration not stated) + COc1cc2nc(C)nc(NC(C)c3cc(N)cc(C(F)(F)F)c3)c2cc1OC1CCOC1",
    "TARGET_UNDER_TEST": "HUVEC/MSC spheroids viability",
    "viability, T/C": "82.3%"
  },
  {
    "COMPOUND": "CC1(C)CCC(CN2CCN(c3ccc(C(=O)NS(=O)(=O)c4ccc(NCC5CCOCC5)c([N+](=O)[O-])c4)c(Oc4cnc5[nH]ccc5c4)c3)CC2)=C(c2ccc(Cl)cc2)C1 + COc1cc2nc(C)nc(NC(C)c3cc(N)cc(C(F)(F)F)c3)c2cc1OC1CCOC1",
    "TARGET_UNDER_TEST": "HUVEC/MSC spheroids viability",
    "viability, T/C": "95.2%"
  }
]

====

Test system: HUVEC/MSC spheroids viability
Experiment: Human HUVEC/MSC cell line growth inhibition [KRAS2];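 also: percent of DMSO vehicle control luminescence so 100% = untreated viability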
Details: second compound 0.00949 µM; first compound 0.1 µM; stronger effect = lower value
Measured viability, T/C by item

[
  {
    "MOLECULE": "COC(=O)c1ccc2c(C(=Nc3ccc(N(C)C(=O)CN4CCN(C)CC4)cc3)c3ccccc3)c(O)[nH]c2c1 + C=CC(=O)N1CCN(c2nc(OCC3CCCN3C)nc3c2CCN(c2cccc4cccc(C)c24)C3)CC1CC#N",
    "viability, T/C (%)": 82.5
  },
  {
    "MOLECULE": "CCN1CCN(Cc2ccc(Nc3ncc(F)c(-c4cc(F)c5nc(C)n(C(C)C)c5c4)n3)nc2)CC1 + C=CC(=O)N1CCN(c2nc(OCC3CCCN3C)nc3c2CCN(c2cccc4cccc(C)c24)C3)CC1CC#N",
    "viability, T/C (%)": 83.7
  },
  {
    "MOLECULE": "Cn1ncnc1[C@H]1c2n[nH]c(=O)c3cc(F)cc(c23)N[C@@H]1c1ccc(F)cc1 + C=CC(=O)N1CCN(c2nc(OCC3CCCN3C)nc3c2CCN(c2cccc4cccc(C)c24)C3)CC1CC#N",
    "viability, T/C (%)": 85.2
  },
  {
    "MOLECULE": "CCNC(=O)CC1N=C(c2ccc(Cl)cc2)c2cc(OC)ccc2-n2c(C)nnc21 (centres undefined) + C=CC(=O)N1CCN(c2nc(OCC3CCCN3C)nc3c2CCN(c2cccc4cccc(C)c24)C3)CC1CC#N",
    "viability, T/C (%)": 79.5
  }
]

====

System: HUVEC/MSC spheroids viability
Assay: Human HUVEC/MSC cell line growth inhibition [KRAS2];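 also: percent of DMSO vehicle control luminescence so 100% = untreated viability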
Conditions: second compound 0.00949 µM; first compound 1 µM; stronger effect = lower value

[
  {
    "MOLECULE": "COc1cc2nccc(Oc3ccc(NC(=O)C4(C(=O)Nc5ccc(F)cc5)CC4)cc3)c2cc1OC + C=CC(=O)N1CCN(c2nc(OCC3CCCN3C)nc3c2CCN(c2cccc4cccc(C)c24)C3)CC1CC#N",
    "viability, T/C / %": 65.7
  },
  {
    "MOLECULE": "COC(=O)c1ccc2c(C(=Nc3ccc(N(C)C(=O)CN4CCN(C)CC4)cc3)c3ccccc3)c(O)[nH]c2c1 + C=CC(=O)N1CCN(c2nc(OCC3CCCN3C)nc3c2CCN(c2cccc4cccc(C)c24)C3)CC1CC#N",
    "viability, T/C / %": 57.8
  },
  {
    "MOLECULE": "COc1cc(Nc2ncc3c(n2)-c2ccc(Cl)cc2C(c2c(F)cccc2OC)=NC3)ccc1C(=O)O + C=CC(=O)N1CCN(c2nc(OCC3CCCN3C)nc3c2CCN(c2cccc4cccc(C)c24)C3)CC1CC#N",
    "viability, T/C / %": 83.8
  },
  {
    "MOLECULE": "O=C(c1cc(Cc2n[nH]c(=O)c3ccccc23)ccc1F)N1CCN(C(=O)C2CC2)CC1 + C=CC(=O)N1CCN(c2nc(OCC3CCCN3C)nc3c2CCN(c2cccc4cccc(C)c24)C3)CC1CC#N",
    "viability, T/C / %": 82.3
  }
]
